test system: SF-268 CNS; experiment: NCI-60 one-dose screen, 48 h (100 = growth as untreated, 0 = no growth, -100 = all killed); conditions: 10 µM unless noted
This is part of a sample that, as a whole, favours compounds with a hit. Of some 83,000 tested, about 20% had one in any assay. Calls of active or inactive are those of the source. The calls were made as follows: active = growth percent below 10; inactive = the rest.
MEASURED_ENDPOINT: growth

Item `O=C1C(Cl)=C(Nc2ccccc2)C(=O)c2ccccc21` : provide growth
-45.7% (active)

Item `CCCCCCCCCCCCCCCCCCOc1ccccc1CC(=O)NCC[N+](C)(C)C` : provide growth
24.2% (inactive)

Item CCOC(=O)c1cnn(CC(C)O)c1NC(=O)NCc1cccc(F)c1 (centres undefined) : provide growth
101% (inactive)

Item COc1ccc2c(c1)CC[C@@H]1[C@@H]2CC[C@]2(C)C3C(=CC(COC(C)=O)C4C(=O)N(c5ccc(Cl)cc5)C(=O)C43)C[C@@H]12 (some centres undefined) : provide growth
91.7% (inactive)

Item COC(=O)c1nc(-c2ccccc2)oc1S(=O)(=O)N1CCCC(C)C1 (centres undefined) : provide growth
85.8% (inactive)

Item `COc1cc(-c2ccc[nH]2)[nH]c1/C=C1\N=C(C)C(CC(=O)OCC(C)(C)C)=C1C` : provide growth
-70.8% (active)

Item `O=S(=O)(Nc1cc(F)cc(F)c1)c1ccc(-c2cnc(C3CC3)o2)cc1` : provide growth
56.7% (inactive)

Item `CN(C)CCCn1c2c(c3ccncc3c1=O)C(=O)c1ccccc1-2` : provide growth
-15.3% (active)

Item `O=c1cc(-c2ccccc2)nc(SCc2nc3cc(Cl)c(Cl)cc3[nH]2)[nH]1` : provide growth
101% (inactive)

Item `Cc1cc(Cl)nc(N2CCN(CCNc3ccnc4cc(Cl)ccc34)CC2)n1` : provide growth
72.2% (inactive)

Item `Cc1ccc(Cc2cnc(NC(=O)/C=C/c3ccc(C)o3)s2)cc1` : provide growth
52.9% (inactive)

Item `Cc1nc2sc(C(=O)Nc3cccc4ccccc34)c(N)c2cc1C(=O)c1ccccc1` : provide growth
53.4% (inactive)

Item `CCN(CC)CCn1c2ccc(OC)cc2c2sc3cc(O)ccc3c(=O)c21` : provide growth
38.5% (inactive)

Item O=C(NC1CCC(Br)CC1)C1CCCC(S(=O)(=O)NC2CCCCC2)C1 (centres undefined) : provide growth
20.8% [25 µM] (inactive)

Item `O=c1cc(CNc2cc(F)cc(F)c2)c2ccc(I)cc2[nH]1` : provide growth
46.9% (inactive)

Item `O=C1/C(=C/c2c[nH]c(=O)[nH]c2=O)SC(=S)N1Cc1ccccc1` : provide growth
95.2% (inactive)

Item `C=C(C)[C@@H]1CC[C@]2(CO)CC[C@]3(C)[C@H](CC[C@@H]4[C@@](C)(CCCN)[C@H](C(=C)C)CC[C@]43C)[C@@H]12` : provide growth
-41.9% (active)

Item `Cc1ccc(-c2nc(SCC(=O)N3CCN(c4cc5c(cc4F)c(=O)c(C(=O)O)cn5C4CC4)CC3)nc(Cl)c2C#N)cc1` : provide growth
93.5% (inactive)

Item `Nc1cc(-c2ccc(Cl)cc2)nn1-c1nnc(/C=C/c2ccco2)c(=O)[nH]1` : provide growth
52.5% (inactive)

Item `Oc1c(CN2CCC(N3CCOCC3)CC2)cc(Cc2cc(CN3CCC(N4CCOCC4)CC3)c(O)c3ncccc23)c2cccnc12` : provide growth
25.5% (inactive)

Item `Oc1c(I)cc(I)cc1CN(Cc1ccccn1)Cc1ccccn1` : provide growth
19.7% (inactive)

Item `Fc1ccc(/C=C/[C@@H]2C[C@@H](F)CCO2)cc1` : provide growth
104% (inactive)

Item `CN(C)CCCNC(=O)c1cncnc1Nc1ccc2c(ccn2Cc2cccc(F)c2)c1` : provide growth
85.6% (inactive)

Item `COc1cc(Cc2cc(OC)c(O)c(OC)c2)cc(OC)c1O` : provide growth
105% (inactive)

Item `Cc1c2ccccc2nc2cc3c(cc12)[C@H]1CC[C@]2(C)C(=O)CC[C@H]2[C@@H]1CC3` : provide growth
89.5% (inactive)

Item `CC(C)(Sc1cc(C(C)(C)C)c(O)c(C(C)(C)C)c1)Sc1cc(C(C)(C)C)c(OC(=O)CCC(=O)O)c(C(C)(C)C)c1` : provide growth
57.3% (inactive)

Item `CS(=O)(=O)c1ccc(-c2nc3ccccc3n2CC(=O)N/N=C/c2ccccc2)cc1` : provide growth
97.5% (inactive)

Item CC1(/C=C/c2ccc(-c3ccccc3)cc2)CCn2cnc3ncnc(c32)N1O (centres undefined) : provide growth
16.6% (inactive)

Item `CC1=C(Cl)C(=O)c2cc(C)ccc2C1=O` : provide growth
88% (inactive)

Item OC1(c2ccccc2)c2ccccc2N(c2ccccc2)c2ccc(Cl)cc21 (centres undefined) : provide growth
-72.4% (active)

Item `CCOC(=O)c1c(C)nc2c(c1N)C(=O)C(=O)N2Cc1ccc(OC)cc1` : provide growth
64.7% (inactive)

Item `O=C(Nc1ccccc1O)c1ccc(CNc2ccnc(C(F)(F)F)c2)cc1` : provide growth
54.8% (inactive)

Item `CCOC(=O)c1nnn(-c2no[n+]([O-])c2-c2ccc(OC)cc2)c1COc1cccc2cccnc12` : provide growth
21.8% (inactive)

Item CCn1cc(C(=O)O)c(=O)c2cc(F)c(N3CCN(CC(=O)Nc4ccccc4)C(C)C3)c(F)c21 (centres undefined) : provide growth
93.7% (inactive)

Item `CC1(C)N=C(N)N=C(N)N1c1cc(Cl)ccc1Cl` : provide growth
75.1% (inactive)

Item `Cc1nn(-c2ccc([N+](=O)[O-])cc2)c2ncnc(N/N=C/c3ccccc3O)c12` : provide growth
9.25% (active)

Item `O=C(Cn1nc(-c2cccc3ccccc23)ccc1=O)NCc1cccc(Cl)c1` : provide growth
52.9% [50 µM] (inactive)

Item `Cc1cc(O)c(=O)cc2c1C[C@H]1CC(C)(C)/C=C/C[C@]3(C)Oc4cc(=O)c(O)cc(C)c4C[C@H]3C[C@H](O)[C@@]1(C)O2` : provide growth
18.5% (inactive)

Item Cc1oc(-c2ccc(Cl)cc2)nc1C1=NN(C(=O)c2ccncc2)C(c2ccccc2)C1 (centres undefined) : provide growth
89.2% (inactive)

###

Tested on: SK-MEL-28 melanoma
Test: NCI-60 one-dose screen, 48 h (100 = growth as untreated, 0 = no growth, -100 = all killed)
Conditions: 10 µM unless noted
Description: Growth inhibition of the SK-MEL-28 human tumor cell line is measured as a screen for anti-cancer activity. Cells are grown in 96 well plates and exposed to the test compound for 48 hours. Compounds are tested at a single concentration, which is 10^-5 M for most compounds. The reported endpoint is percent growth (GI% or GIPRCNT), where numbers from 0 - 100% represent growth inhibition, and numbers from -100% - 0 represent cell death. For example, a value of 40 represents 60% growth inhibition. […]
This is part of a sample that, as a whole, favours compounds with a hit. Of some 83,000 tested, about 20% had one in any assay.
# strict inequality: growth < 40% yields Fulfilled, everything else yields Not fulfilled

Below 40% on growth? Entry COc1ccc(C(O)c2cc3c(N)c(C(=O)Nc4cccc5ccccc45)sc3nc2C)cc1 (centres undefined)
Not fulfilled

Below 40% on growth? Entry `O=C1/C(=C/c2ccc(Cl)cc2)CN(C(=O)C(Cl)Cl)C/C1=C\c1ccc(Cl)cc1`
Fulfilled

Below 40% on growth? Entry `O=C1Nc2ccccc2/C1=N/N1C(=O)CN(CCCl)C1=O`
Not fulfilled

Below 40% on growth? Entry `CCC(C)(C)c1ccc(Nc2ccc(Nc3ccc(C(C)(C)CC)cc3)cc2)cc1`
Not fulfilled

Below 40% on growth? Entry `CC1=C2[C@@H](CC1)[C@]1(C)O[C@@](C3CCNCC3)(C[C@H]1OC(=O)CO)[C@H]2OC(=O)/C=C/c1ccccc1`
Not fulfilled

Below 40% on growth? Entry `CS(=O)(=O)Nc1cc(-c2ccc3ncnc(Nc4ccc5c(cnn5Cc5ccccc5F)c4)c3c2)cnc1Cl`
Fulfilled

Below 40% on growth? Entry `CCN(CC)CCOc1ccc2c(-c3ccccc3)c(-c3ccc(OC)cc3)c(=O)oc2c1`
Not fulfilled

Below 40% on growth? Entry `Cc1cccc(N2C(=O)/C(=C/C(Cl)=C/c3ccc([N+](=O)[O-])cc3)SC2=S)c1C`
Fulfilled

Below 40% on growth? Entry `Fc1ccc2[nH]cc(-c3nc(-c4c[nH]c5c(Cl)nccc45)cs3)c2c1`
Not fulfilled

###

system: TK-10 renal; assay: NCI-60 one-dose screen, 48 h (100 = growth as untreated, 0 = no growth, -100 = all killed); conditions: 10 µM unless noted
Compounds without any hit were thinned out: in the full panel of roughly 83,000, 20% have a hit.
Label 0 (no) if growth falls below 70%; label 1 (yes) in every other case.

For this molecule, is measured growth 70% or higher? CCOC(=O)C(CCN(C)C)c1ccccc1 (stereo unspecified)
1 (yes)

For this molecule, is measured growth 70% or higher? `O=C1O[C@@H](c2ccccc2Cl)[C@@H]2c3cc4c(cc3CCN12)OCO4`
1 (yes)

For this molecule, is measured growth 70% or higher? O=C(/C=C/C12c3ccccc3C(c3ccccc31)C1C(=O)NC(=O)C12)c1ccc(I)cc1 (stereo unspecified)
0 (no)

For this molecule, is measured growth 70% or higher? `c1ccc(-c2ccc3c(c2)C2(CCNCC2)CN3)cc1`
1 (yes)

For this molecule, is measured growth 70% or higher? `CC1=Nc2cnc(Nc3ccc(N4CCCCC4)cc3)nc2Nc2ccccc21`
1 (yes)

For this molecule, is measured growth 70% or higher? `O=[N+]([O-])c1ccccc1Nc1ccc2ccccc2c1`
1 (yes)

For this molecule, is measured growth 70% or higher? `N[C@@H]1CCC[C@H]1NCCCCN1C(=O)c2cccc3cc([N+](=O)[O-])cc(c23)C1=O`
0 (no)

For this molecule, is measured growth 70% or higher? `Cc1nc2sc(C(=O)Nc3cccc(Cl)c3C)c(N)c2cc1C(=O)/C=C/c1ccccc1`
0 (no)

For this molecule, is measured growth 70% or higher? `CCOC(=O)CC[C@H](NC(=O)c1ccc(N(C)Cc2cnc3nc(N)nc(N)c3n2)c2ccccc12)C(=O)OCC`
0 (no)

For this molecule, is measured growth 70% or higher? `O=C(NCc1ccc(Cn2c(=O)sn(-c3ccccc3)c2=O)cc1)OCc1ccc2cccc(O)c2n1`
0 (no)

For this molecule, is measured growth 70% or higher? CC1SC(c2ccccc2O)N(NC(=O)CCC(=O)c2nc3ncccc3[nH]2)C1=O (stereo unspecified)
1 (yes)

For this molecule, is measured growth 70% or higher? `O=CCCCOCc1ccccc1`
1 (yes)

For this molecule, is measured growth 70% or higher? CCOC(=O)c1cnn(CC(C)O)c1NC(=O)NCc1cccc(F)c1 (stereo unspecified)
1 (yes)

For this molecule, is measured growth 70% or higher? `N#Cc1c(-c2cccc(Cl)c2)cc(-c2cccnc2)[nH]c1=O`
1 (yes)

For this molecule, is measured growth 70% or higher? `CCOC(=O)C/C(=N\Nc1cc(=O)[nH]c2ccc(OC)cc12)C(=O)OCC`
1 (yes)

For this molecule, is measured growth 70% or higher? Clc1cccc(C2Cc3cnccc3-c3[nH]c4ccncc4c32)c1 (stereo unspecified)
0 (no)

For this molecule, is measured growth 70% or higher? `COc1ccc2c(c1)c(-c1nc(-c3ccc4ccccc4c3)cs1)cn2C`
1 (yes)

For this molecule, is measured growth 70% or higher? `CCN(CC)CCOc1ccc(C(=O)/C=C\c2ccc(Cl)cc2Cl)cc1`
1 (yes)

For this molecule, is measured growth 70% or higher? `CS(=O)(=O)Nc1cc(-c2ccc3ncnc(Nc4ccc5c(cnn5Cc5ccncc5)c4)c3c2)cnc1Cl`
0 (no)

For this molecule, is measured growth 70% or higher? O=S(Nc1ccccc1)c1ccc(Cl)cc1 (stereo unspecified)
1 (yes)
